Reported inhibition values for a set of compounds
# tested system: N-glycosylase/DNA lyase (Homo sapiens);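 also: OGG1 cleavage of a quenched duplex DNA oligonucleotide, coupled to APE1 for strand incision, read as fluorescence at 594 nm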
# condition info: Compound Concentration 10.0 uM, Hit No
# Description: Inhibition of OGG1 by quantifying inhibition of OGG1-mediated cleavage and dissociation of quenched duplex DNA oligonucleotides, measured as fluorescence at 594 nm. To generate a functional strand incision and increase turn-over this assay is coupled to APE1.
readout: inhibition

{"compound": "N#Cc1ccc(NC(=O)Nc2ccccc2Br)c2nn[nH]c12", "result": "-1.34%"}
{"compound": "CN(C(=O)c1ccccc1)c1cc(N(C)c2ccc3c(c2)CCc2ccc(C(=O)NCCN4CCOCC4)cc2C3=O)ccc1F", "result": "-2.17%"}
{"compound": "CCCn1c(=O)c2[nH]c(C3CCCC3)nc2n(CCC)c1=O", "result": "-9.82%"}
{"compound": "CCC[C@H](Oc1cc(C)c(-n2cc(C(F)(F)F)cn2)c(C)c1)c1ccc(C(=O)NCCC(=O)O)cc1", "result": "8.48%"}
{"compound": "Cc1cc(C(C)(C)C)c(O)c(C)c1CC1=NCCN1", "result": "-1.82%"}
{"compound": "COc1cc(NC(=O)CCN2CCC(OC(=O)Nc3ccccc3-c3ccccc3)CC2)c(Cl)cc1CNC[C@H](O)c1ccc(O)c2[nH]c(=O)ccc12", "result": "-7.57%"}
{"compound": "Cc1c(C2=CCN(C(=O)N(C)C(C)C)CC2)nnn1-c1cccnc1F", "result": "-1.95%"}
{"compound": "CNC[C@H](O)c1cccc(O)c1", "result": "-3.42%"}
{"compound": "CN(C)C(=O)c1sc2nc(N3CCC(S(C)(=O)=O)CC3)cc(C(F)(F)F)c2c1N", "result": "-1.24%"}
{"compound": "COc1ccc2c(c1)O[C@H](c1ccc(OC)c(OC)c1)C[C@@H]2NC(=O)C1(c2ccc3c(c2)OC(F)(F)O3)CC1", "result": "6.08%"}
{"compound": "O=C(Nc1cccnn1)N1CC(C/C=C/c2cncc(Oc3ccc(C(F)(F)F)cn3)n2)C1", "result": "-7.39%"}
{"compound": "CNc1nc(Nc2ccccc2)nc(OC(C(F)(F)F)C(F)(F)F)n1", "result": "-3.77%"}
{"compound": "Cc1c(NC(=O)c2cc(C(N)=O)nc3cc(F)ccc23)c(C(F)(F)F)nn1Cc1ccc(C#N)cc1", "result": "3.97%"}
{"compound": "CS(=O)(=O)Nc1c(O)ccc2c1CCCC2C1=NCCN1 (centres undefined)", "result": "-9.24%"}
{"compound": "CCCCC#Cc1nc(NC)c2ncn([C@@H]3O[C@H](CO)[C@@H](O)[C@H]3O)c2n1", "result": "-7.52%"}
{"compound": "O=c1ccn([C@@H]2O[C@H](COP(=O)(O)OP(=O)(O)OP(=O)(O)OP(=O)(O)OC[C@H]3O[C@@H](n4ccc(=O)[nH]c4=O)[C@H](O)[C@@H]3O)[C@@H](O)[C@H]2O)c(=O)[nH]1", "result": "-1.8%"}
{"compound": "COc1ccccc1C(=O)Nc1cccc(NC(=O)c2cccc(C)c2)c1", "result": "-2.96%"}
{"compound": "c1ccc(NCc2ccc(CNc3ccccn3)cc2)nc1", "result": "-3.65%"}
{"compound": "C[C@@H](NC(=O)Nc1cc2[nH]ncc2c(CO)n1)c1ccccc1", "result": "4.45%"}

====

# tested system: Uracil-DNA glycosylase (Homo sapiens);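 also: UNG excision on a quenched double-stranded DNA oligo probe, with APE1 added for strand incision and turnover, read as fluorescence at 594 nm as strands separate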
# condition info: Compound Concentration 10.0 uM, Hit No
# Description: Inhibition of UNG by quantifying inhibition of UNG-mediated cleavage and dissociation of quenched duplex DNA oligonucleotides, measured as fluorescence at 594 nm. To generate a functional strand incision and increase turn-over this assay is coupled to APE1.
Where a SMILES comes first, the peptide text is derived from it. [ ]: non-standard residue; d: D form. Arg(Me) = CNC(=N)NCCC[C@H](N)C(=O)O; d4Pal = N[C@H](Cc1ccncc1)C(=O)O; azaGly = NNC(=O)O
Reported inhibition values for a set of compounds
readout: inhibition (%)

{"compound": "Cn1cnc2c(F)c(Nc3ccc(Br)cc3Cl)c(C(=O)NOCCO)cc21", "readout": "inhibition", "units of measure": "%", "numeric result": -1.17}
{"compound": "CN(C)CCOc1ccc(-c2nc(-c3ccncc3)c(-c3ccc4c(c3)CC/C4=N\\O)[nH]2)cc1", "readout": "inhibition", "units of measure": "%", "numeric result": 11.4}
{"compound": "C[C@H](c1ccc(F)cc1)N(Cc1ccc(Cl)c(C(=O)O)c1)C(=O)c1cnc2ccccc2c1", "readout": "inhibition", "units of measure": "%", "numeric result": 1.41}
{"compound": "COc1ccc(-c2ccc3cc(C(=O)O)ccc3c2)cc1C12CC3CC(CC(C3)C1)C2", "readout": "inhibition", "units of measure": "%", "numeric result": -6.23}
{"compound": "COc1ccccc1CN[C@H]1C2CCN(CC2)[C@H]1C(c1ccccc1)c1ccccc1", "readout": "inhibition", "units of measure": "%", "numeric result": -4.4}
{"compound": "CCCCN(CC)c1nc(C)nc2c1c(C)cn2-c1c(C)cc(C)cc1C", "readout": "inhibition", "units of measure": "%", "numeric result": -4.91}
{"compound": "O=C(O)CC1CCC2(CC1)CCN(c1cc(OC(F)(F)F)ccc1Cl)CC2", "readout": "inhibition", "units of measure": "%", "numeric result": -5.76}
{"compound": "CC(C)(C#Cc1ccc(NC(=O)COc2ccccc2C(=O)c2ccccc2)c(Cl)c1)C(=O)O", "readout": "inhibition", "units of measure": "%", "numeric result": 7.11}
{"compound": "NCCCCN(Cc1nc2ccccc2[nH]1)[C@H]1CCCc2cccnc21", "readout": "inhibition", "units of measure": "%", "numeric result": -4.22}
{"compound": "COCCCS(=O)(=O)c1cc(C)c(-c2ccc(F)c3c2CC[C@H]3Oc2ccc3c(c2)OC[C@H]3CC(=O)O)c(C)c1", "readout": "inhibition", "units of measure": "%", "numeric result": -1.09}
{"compound": "CCCCC[C@H](O)/C=C/[C@H]1[C@H](O)CC(=O)[C@@H]1CCCCCCC(=O)O", "readout": "inhibition", "units of measure": "%", "numeric result": -7.06}
{"compound": "CC(=O)Nc1c(C(C)=O)c(=O)n(C)c2nc(-c3ccc(Cl)cc3Cl)c(-c3ccc(Cl)cc3)cc12", "readout": "inhibition", "units of measure": "%", "numeric result": 1.63}
{"compound": "CCCCCCNC(=O)Nc1ccc(S(=O)(=O)Nc2ccc(CCNC[C@H](O)COc3ccc(O)cc3)cc2)cc1", "readout": "inhibition", "units of measure": "%", "numeric result": 5.25}
{"compound": "CC(C)CNc1nc(N2CCN(CC3CCCOC3)CC2)ncc1C(=O)NCc1ccccc1 (configuration not stated)", "readout": "inhibition", "units of measure": "%", "numeric result": -1.17}
{"compound": "O=C1CSC(=O)N1C(CCc1ccncc1)COc1ccc(-c2cccc([N+](=O)[O-])c2)cc1 (configuration not stated)", "readout": "inhibition", "units of measure": "%", "numeric result": -2.95}
{"compound": "CC1=C(C(=O)Nc2cc3cn[nH]c3cc2F)C(c2ccc(C(F)(F)F)cc2)CC(=O)N1 (configuration not stated)", "readout": "inhibition", "units of measure": "%", "numeric result": 7.25}
{"compound": "COC[C@H](O)Cn1c(=O)cnn(-c2ccc(Cl)c(C(=O)NCC3(O)CCCCCC3)c2)c1=O", "readout": "inhibition", "units of measure": "%", "numeric result": -3.13}
{"compound": "Cc1ccc2[nH]c(CNCCCc3ccncc3)cc(=O)c2c1", "readout": "inhibition", "units of measure": "%", "numeric result": -0.701}
{"compound": "O=C1c2ccc(Nc3ccc(F)cc3F)cc2CCc2ccc(OC[C@H](O)CO)cc21", "readout": "inhibition", "units of measure": "%", "numeric result": 8.79}
{"compound": "CC(=O)Nc1cccc2c1c(Sc1ccc(Cl)cc1)c(C)n2CC(=O)O", "readout": "inhibition", "units of measure": "%", "numeric result": -0.965}
{"compound": "O=C(Nc1ccc(-n2nc(C(F)(F)F)cc2C(F)(F)F)cc1)c1ccncc1F", "readout": "inhibition", "units of measure": "%", "numeric result": -0.503}
{"compound": "CC(C)(O)c1ccc2c(c1)ncn2-c1cccc(-c2ccccc2C#N)c1", "readout": "inhibition", "units of measure": "%", "numeric result": -7.68}
{"compound": "CCO[C@H](COc1ccc(C(F)(F)F)cc1)CSc1ccc(OCC(=O)O)c(C)c1", "readout": "inhibition", "units of measure": "%", "numeric result": 6.42}
{"compound": "C[C@H](c1ccnc(Nc2nc3ccc(-c4cc(N(C)C)ncn4)cc3[nH]2)c1)N1CCN(C(=O)CC(F)(F)F)CC1", "readout": "inhibition", "units of measure": "%", "numeric result": 1.7}
{"compound": "COc1ccc2c(c1)O[C@H](c1ccc(OC)c(OC)c1)C[C@@H]2NC(=O)C1(c2ccc3c(c2)OC(F)(F)O3)CC1", "readout": "inhibition", "units of measure": "%", "numeric result": 3.82}
{"compound": "O=C(Nc1cccnn1)N1CCC(=Cc2cccc(Oc3ccc(C(F)(F)F)cn3)c2)CC1", "readout": "inhibition", "units of measure": "%", "numeric result": 0.719}
{"compound": "O=C(NCCCN1CCOC1=O)c1cnc(NCc2cc(Br)ccc2Br)nc1NC1CCCC1", "readout": "inhibition", "units of measure": "%", "numeric result": 4.06}
{"compound": "NCCc1c[nH]c2ccc(C(N)=O)cc12", "readout": "inhibition", "units of measure": "%", "numeric result": -6.78}
{"compound": "C[C@H](NC(=O)Nc1cc2[nH]ncc2c(CO)n1)c1ccccn1", "readout": "inhibition", "units of measure": "%", "numeric result": 4.22}
{"compound": "FC(F)(F)c1ccc2c(c1)nc(-c1cccnc1)n2C1CC1", "readout": "inhibition", "units of measure": "%", "numeric result": -0.0445}
{"compound": "NCC(O)c1ccc(O)cc1 (configuration not stated)", "readout": "inhibition", "units of measure": "%", "numeric result": 0.665}
{"compound": "CC(C)C[C@@H](C(=O)N[C@@H](Cc1ccc(OCc2ccccc2)cc1)C(=O)NC(C)(C)C)N(C)Cc1ccc(C(C)(C)C)cc1", "readout": "inhibition", "units of measure": "%", "numeric result": -6.44}
{"compound": "COc1ccccc1-c1cc(Nc2cccc(CS(N)(=O)=O)c2)ncn1", "readout": "inhibition", "units of measure": "%", "numeric result": 3.59}
{"compound": "CCc1nn(CCCN2CCN(c3cccc(Cl)c3)CC2)c(=O)n1CCOc1ccccc1", "readout": "inhibition", "units of measure": "%", "numeric result": -5.52}
{"compound": "CC1(C)CC(CN2CCC(F)(CNC(=O)c3cc(Cl)cc(Cl)c3)CC2)CCO1 (configuration not stated)", "readout": "inhibition", "units of measure": "%", "numeric result": -1.24}
{"compound": "CN(C(=O)Cc1ccc(Cl)c(Cl)c1)C(CN1CCCC1)c1cccc(OCC(=O)O)c1 (configuration not stated)", "readout": "inhibition", "units of measure": "%", "numeric result": -7.78}
{"compound": "CNC(=N)NCCC[C@H](NC(=O)[C@H](CC(C)C)NC(=O)NNC(=O)[C@H](Cc1ccccc1)NC(=O)[C@H](CO)NC(=O)[C@H](CC(N)=O)NC(=O)[C@@H](Cc1ccncc1)NC(=O)[C@H](N)Cc1ccc(O)cc1)C(=O)N[C@@H](Cc1ccccc1)C(N)=O (H-[dY][d4Pal]NSF[azaGly]L[Arg(Me)]F-NH2)", "readout": "inhibition", "units of measure": "%", "numeric result": 6.61}
